target-of-assay: T1, extracellular domain of human KLB expressed with C-terminal HA and hexahistidine tags (human, UniProt Q86Z14 1-996)
T1 construct: also called hKLB-HA-6His; hKLB-HA-6his
T1 sequence: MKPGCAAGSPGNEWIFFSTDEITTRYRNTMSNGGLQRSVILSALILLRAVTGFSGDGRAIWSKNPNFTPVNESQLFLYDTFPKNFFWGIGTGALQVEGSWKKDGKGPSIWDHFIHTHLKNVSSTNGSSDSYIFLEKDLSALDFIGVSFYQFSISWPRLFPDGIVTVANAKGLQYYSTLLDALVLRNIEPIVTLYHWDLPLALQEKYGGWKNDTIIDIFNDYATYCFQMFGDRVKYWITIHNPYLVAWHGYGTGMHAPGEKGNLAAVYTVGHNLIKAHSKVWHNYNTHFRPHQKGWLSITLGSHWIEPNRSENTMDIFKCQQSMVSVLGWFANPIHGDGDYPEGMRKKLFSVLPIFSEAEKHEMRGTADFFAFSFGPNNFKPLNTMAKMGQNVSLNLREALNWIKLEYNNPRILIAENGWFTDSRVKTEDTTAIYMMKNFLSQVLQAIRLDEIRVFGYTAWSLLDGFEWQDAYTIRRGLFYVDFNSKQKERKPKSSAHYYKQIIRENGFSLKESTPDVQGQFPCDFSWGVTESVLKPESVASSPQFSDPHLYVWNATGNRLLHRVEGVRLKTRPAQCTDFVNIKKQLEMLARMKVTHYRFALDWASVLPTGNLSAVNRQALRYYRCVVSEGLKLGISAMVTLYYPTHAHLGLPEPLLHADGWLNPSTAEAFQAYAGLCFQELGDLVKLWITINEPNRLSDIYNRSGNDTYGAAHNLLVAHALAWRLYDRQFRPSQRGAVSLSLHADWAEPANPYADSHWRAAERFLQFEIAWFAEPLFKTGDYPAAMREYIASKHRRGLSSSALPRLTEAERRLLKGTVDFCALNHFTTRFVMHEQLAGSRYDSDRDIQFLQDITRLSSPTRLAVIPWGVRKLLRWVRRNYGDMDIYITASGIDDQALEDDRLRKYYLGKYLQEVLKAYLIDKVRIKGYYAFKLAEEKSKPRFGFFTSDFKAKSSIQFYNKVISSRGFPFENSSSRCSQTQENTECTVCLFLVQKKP
assay-summary: SPR, mAb captured, 37 C
Here the recorded 20 nM hKLB-HA-6His Bind (RU) is given for each entry.
Just the number please, in RU, no unit attached.

# binder, units-of-measure, 20 nM hKLB-HA-6His Bind (RU)
measured = [
    ("H2aM8093N (antibody, V domains shown, mouse IgG2 Fc (H2aM prefix)) VH: QVQLVQSGAEVKRPGSSVKVSCKASGDTFSTYAISWVRQAPGQGLEWMGGIIPVFGTTNYAQKFQDRVTITTDESTRTAYMELSSLRSEDTAVYYCAGIAGPDYWGQGTLVTVSS VL: DIQMTQSPSSLSASVGDRVTITCRASQGIRNYLAWFQQKPGKAPKSLIYLATSLQSGVPSKFSGSGSGTDFTLTISSLQPEDFATYYCQQYYSYPWTFGQGTKVEIK", "RU", 211),
    ("H2aM8832N (antibody, V domains shown, mouse IgG2 Fc (H2aM prefix)) VH: QVQLVESGGGVVQPGRSLRLSCAASGFTFSRYGMHWVRQAPGKGLEWVAVIWYDGTNKYYEDSLKGRFTISRDNSKNTLYLQMNSLRAEDSAVYYCARDQGKYIDYWGQGTLVTVSS VL: AIQMTQSPSSLSASVGDRVTITCRTSQDIRNDLGWYQQKPGKVPNLLIYAASTLQSGVPSRFSGSGSGTDFTLTISSLQPEDFATYYCLQDYNYPFTFGPGTKVDIK", "RU", -0.7),
]

QUERY: Fill in 20 nM hKLB-HA-6His Bind (RU) for record H4H8880P (antibody, V domains shown, human IgG4 Fc (H4H prefix)) VH: EVQLVESGGGVVQPGGSLRLSCAASGFTFSLYAMSWVRQAPGKGLEWVSAISGSAHGAYYADSVKGRFTISRDNSKNSLYLQMNSLRAEDTAIYYCAKDLVIAVAGTFDYWGQGTLVTVSS VL: DIQMTQSPSSLSASVGDRVTITCRASQIISTYLNWYQQKPGKAPKILIYTASSLKSGVPSRFSGSGSGTDFTLTISSLQPEDFATYYCQQTYSSPRFTFGPGTKVDIK
RESULT: 148

QUERY: Fill in 20 nM hKLB-HA-6His Bind (RU) for record H4H8881P (antibody, V domains shown, human IgG4 Fc (H4H prefix)) VH: QVQLVQSGAEVKKPGASVKVSCKASGYTFTSYVIHWVRQAPGQRLEWMGWSNAANGDTKYSQEFQDRVTFTRDTSASTAYMELSSLRSEDMAVYYCARWNWNYGAFDIWGQGTMVTVSS VL: DIQMTQSPSSLSASVGDRVTITCQASQDINNYLHWYQQKSGKAPNLLIYDASILETGVPSRFSGSGSGTDFTFTISSLQPEDIATYYCQQYDNLPYTFGQGTKLEIK
RESULT: 101
